Can you tell me IC50 for the items I'm about to list?
- System: IMR-90
- ASSAY EXPLANATION: SRB cell proliferation assay, IMR-90
- Assay type: cell-based
- CONDITION DESCRIPTION: Homo sapiens, 72 hours, SRB assay, slow cycling cell line, read-out: CELLULAR IC50 IMR-90
- Experimental: We observed the surprising finding that compounds of the invention were useful in inhibiting proliferation of tumor cell lines (see Table 3). Cells were exposed to the test compounds at various concentrations appropriate to determine an IC50 for 72 hours. Cell proliferation was measured using the SRB assay according to Shekan et al (J Natl Cancer Inst (1990) 82, 1107-112) in order to estimate the IC50 values shown in Table 3. […]

Checklist item: IC50 tested on IMR-90, entry CCC1C(=O)N(C)c2cnc(Nc3ccc(C(=O)NCc4ccc(N5CCN(C)CC5)cc4)cc3OC)nc2N1N(C)C (stereo not drawn) [Compound 11] , value? > 1000 nM

Checklist item: IC50 tested on IMR-90, entry CCC1C(=O)N(C)c2cnc(Nc3ccc(C(=O)NC4CCN(C)CC4)cc3OC)nc2N1N(C)Cc1ccccc1 (stereo not drawn) [Compound 15] , value? > 1000 nM

Checklist item: IC50 tested on IMR-90, entry CCC1C(=O)N(C)c2cnc(Nc3ccc(C(=O)N[C@H]4CC[C@H](N5CCN(CC6CC6)CC5)CC4)cc3OC)nc2N1N(C)C (relative stereo) [Compound 13] , value? > 1000 nM
